// reported pIC50 per item
system: Plasmodium falciparum; assay: Antiparasitic activity against chloroquine-sensitive Plasmodium falciparum NF54 in erythrocytes by [3H]hypoxanthine uptake; type: functional, organism-based
Recall that pIC50 is obtained by taking minus log10 of the concentration measured in molar.

stdin: Provide measured pIC50 on Plasmodium falciparum for O=C(NCCCN1CCN(CCCNc2ccnc3cc(Cl)ccc23)CC1)c1ccccc1C(=O)c1ccccc1 please.
stdout: 8.00

stdin: // fetch pIC50 for O=C(CC1CCCCC1)NCCCN1CCN(CCCNc2ccnc3cc(Cl)ccc23)CC1 ; system: Plasmodium falciparum
stdout: 8.00

stdin: Fill: pIC50 (Plasmodium falciparum) for this molecule O=C(Cc1cccc2ccccc12)NCCCN1CCN(CCCNc2ccnc3cc(Cl)ccc23)CC1
stdout: 7.89

stdin: For Plasmodium falciparum, give pIC50 of the listed molecule: O=C(Cc1c(Cl)cccc1Cl)NCCCN1CCN(CCCNc2ccnc3cc(Cl)ccc23)CC1
stdout: 7.96

stdin: Provide the reported pIC50 (system: Plasmodium falciparum) for O=C(CCCc1ccccc1)NCCCN1CCN(CCCNc2ccnc3cc(Cl)ccc23)CC1
stdout: 7.77

stdin: State the measured pIC50 (Plasmodium falciparum) of O=C(NCCCN1CCN(CCCNc2ccnc3cc(Cl)ccc23)CC1)c1cc(Cl)cc(Cl)c1
stdout: 8.15

stdin: Provide Plasmodium falciparum pIC50 reading for O=C(NCCCN1CCN(CCCNc2ccnc3cc(Cl)ccc23)CC1)c1ccc(Oc2ccccc2)cc1 .
stdout: 8.05

stdin: Provide measured pIC50 on Plasmodium falciparum for O=C(CCCC1CCCCC1)NCCCN1CCN(CCCNc2ccnc3cc(Cl)ccc23)CC1 please.
stdout: 6.81

stdin: Please respond with reported pIC50 (system Plasmodium falciparum) for O=C(CCCOc1ccccc1)NCCCN1CCN(CCCNc2ccnc3cc(Cl)ccc23)CC1 .
stdout: 7.92

src = ChEMBL document CHEMBL1147171
